experimental.target: Src kinase domain (Gallus gallus)
Construct: chicken c-Src (residues 251-533 and residues 83-533); made in house
procedure.text: Fluorescence anisotropy binding assay
Parameters: species or system chicken
particulars: fluorescein-labeled macrocycle; no competitor; read-out: dissociation constant (KD)
In this section we review reported Kd values for a set of compounds.
reported.property: Kd

{"columns": ["compound", "value.measured"],
 "data": [
  ["NC(=O)[C@@H]1CCNC(=O)[C@H](CCCNC(=O)c2cnccn2)NC(=O)[C@H](CC2CCCCC2)NC(=O)[C@H](C/C=C/c2ccccc2)NC(=O)/C=C\\C(=O)N1 [cis-A11-B8-C10-D7]", "3600 nM"],
  ["NC(=O)[C@@H]1CCNC(=O)[C@H](CCCNC(=O)c2cnccn2)NC(=O)[C@H](Cc2ccco2)NC(=O)[C@H](CC2CC2)NC(=O)/C=C\\C(=O)N1 [cis-A11-B1-C5-D7]", "2100 nM"],
  ["NC(=O)[C@@H]1CCCNC(=O)[C@H](Cc2ccc([N+](=O)[O-])cc2)NC(=O)[C@H](Cc2ccco2)NC(=O)[C@H](CC2CC2)NC(=O)/C=C/C(=O)N1 [trans-A10-B1-C5-D6]", "300 nM"]
]}

---

experimental.target: Lck (Mus musculus)
Construct: murine Lck (residues 227-509); made in house
Sequence (P06240 227-509): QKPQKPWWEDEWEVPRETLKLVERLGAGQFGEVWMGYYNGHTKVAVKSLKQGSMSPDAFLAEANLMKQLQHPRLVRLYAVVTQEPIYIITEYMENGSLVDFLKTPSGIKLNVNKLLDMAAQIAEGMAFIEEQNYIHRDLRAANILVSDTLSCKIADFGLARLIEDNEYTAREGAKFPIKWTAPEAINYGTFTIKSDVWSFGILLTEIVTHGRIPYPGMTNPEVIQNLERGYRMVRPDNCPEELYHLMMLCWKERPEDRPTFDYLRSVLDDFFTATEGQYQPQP
procedure.text: Continuous spectrophotometric kinase activity assay
Assay type: biochemical, murine
particulars: 250 μM ATP, 300 μM Src optimal peptide
pIC50: −log10 of the molar value.

{"columns": ["molecule", "experimental.target", "relation.operator", "pIC50"],
 "data": [
  ["NC(=O)[C@@H]1CCNC(=O)[C@H](CCCNC(=O)c2cnccn2)NC(=O)[C@H](Cc2ccco2)NC(=O)[C@H](CC2CC2)NC(=O)/C=C\\C(=O)N1 [cis-A11-B1-C5-D7]", "Lck (Mus musculus)", "<", 4.00],
  ["NC(=O)[C@@H]1CCCNC(=O)[C@H](Cc2ccc([N+](=O)[O-])cc2)NC(=O)[C@H](Cc2ccccc2)NC(=O)[C@H](CC2CC2)NC(=O)/C=C/C(=O)N1", "Lck (Mus musculus)", "=", 5.00],
  ["O=C1/C=C\\C(=O)N[C@@H](CC2CCCCC2)C(=O)N[C@@H](Cc2ccccc2)C(=O)N[C@@H](CCCNC(=O)c2cnccn2)C(=O)NCC[C@@H](C(=O)O)N1", "Lck (Mus musculus)", "=", 5.62],
  ["NC(=O)[C@@H]1CCCNC(=O)[C@H](Cc2ccc([N+](=O)[O-])cc2)NC(=O)[C@H](Cc2ccco2)NC(=O)[C@H](CC2CC2)NC(=O)/C=C/C(=O)N1 [trans-A10-B1-C5-D6]", "Lck (Mus musculus)", "<", 4.00]
]}

---

experimental.target: HCK (Homo sapiens, UniProt P08631)
Sequence (P08631 262-515 limits assumed): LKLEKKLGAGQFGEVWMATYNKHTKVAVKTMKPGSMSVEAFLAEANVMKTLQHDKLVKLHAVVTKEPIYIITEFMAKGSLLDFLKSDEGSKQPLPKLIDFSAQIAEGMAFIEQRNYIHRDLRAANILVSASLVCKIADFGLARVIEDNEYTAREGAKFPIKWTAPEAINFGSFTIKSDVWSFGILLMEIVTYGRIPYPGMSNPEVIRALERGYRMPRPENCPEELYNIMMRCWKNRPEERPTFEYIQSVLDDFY
procedure.text: Continuous spectrophotometric kinase activity assay
Assay type: biochemical
Design: Kinase domain constructs of human c-Abl (residues 229-512), chicken c-Src (residues 251-533 and residues 83-533), murine Lck (residues 227-509), and human Hck (residues 166-445); made in house
particulars: 250 μM ATP, 300 μM Src optimal peptide

{"columns": ["compound", "unit.annotation", "relation.operator", "IC50"],
 "data": [
  ["NC(=O)[C@@H]1CCCNC(=O)[C@H](Cc2ccc([N+](=O)[O-])cc2)NC(=O)[C@H](Cc2ccccc2)NC(=O)[C@H](CC2CC2)NC(=O)/C=C/C(=O)N1", "µM", "=", 11],
  ["NC(=O)[C@@H]1CCCNC(=O)[C@H](Cc2ccc([N+](=O)[O-])cc2)NC(=O)[C@H](Cc2ccco2)NC(=O)[C@H](CC2CC2)NC(=O)/C=C/C(=O)N1 [trans-A10-B1-C5-D6]", "µM", ">", 100],
  ["O=C1/C=C\\C(=O)N[C@@H](CC2CCCCC2)C(=O)N[C@@H](Cc2ccccc2)C(=O)N[C@@H](CCCNC(=O)c2cnccn2)C(=O)NCC[C@@H](C(=O)O)N1", "µM", "=", 1],
  ["NC(=O)[C@@H]1CCNC(=O)[C@H](CCCNC(=O)c2cnccn2)NC(=O)[C@H](Cc2ccco2)NC(=O)[C@H](CC2CC2)NC(=O)/C=C\\C(=O)N1 [cis-A11-B1-C5-D7]", "µM", ">", 100]
]}
